- measured on: T1, human GPRC5D (G protein-coupled receptor class C group 5 member D), on cells (human, UniProt Q9NZD1 1-345)
- T1 construct: whole, on cells; also called hGPRC5D
- assay method text: FACS on 293T cells expressing human GPRC5D
I'd be grateful if you could share measured MFI.Max for these entries.
Numbers only, in MFI.

Some binders with recorded MFI.Max:
[[record]]
binder = "humanized antibody 9D7 (hz) (antibody, V domains shown) VH: QVQLQESGPGLVKPSETLSLTCTVSGYSITSDYAWNWIRQPPGKGLEWMGYISYSGSATYSPSLKSRITISRDTSKNQFSLKLSSVTAADTAVYYCARGGIAGRGRWGAMDYWGQGTTVTVSS VL: DIQMTQSPSSLSASVGDRVTITCKASQNVGTNVAWYQQKPGQSPKALIYSASYRDSGVPDRFSGSGSGTDFTLTISSLQPEDFATYYCQQYKSYPLTFGQGTRLEIKR"
units_symbol = "MFI"
reading = 8940

[[record]]
binder = "humanized antibody 24F5 (hz) (antibody, V domains shown) VH: QVQLVQSGAEVKKPGASVKVSCKASGYTFPYYVMHWVRQAPGQGLEWIGYINPYNDGTKYNEKFKGRATLTSDKSTSTAYMELSSLRSEDTAVYYCARGGVRRYFDYWGQGTTVTVSS VL: DIQMTQSPSTLSASVGDRVTITCRASQDIGSNLNWLQQKPGGTIKRLIYATSSLDSGVPSRFSGSRSGSEYTLTISSLQPDDFATYYCLQYATFPYTFGQGTRLEIKR"
units_symbol = "MFI"
reading = 8910

[[record]]
binder = "humanized antibody 6E97 (hz) (antibody, V domains shown) VH: QVQLVQSGAEVKKPGASVKVSCKASGYTFPYYVIHWVRQAPGQGLEWIGYINPYNAGTKYNEKFKGRATLTSDKSTSTAYMELSSLRSEDTAVYYCARGGVRRYFDYWGQGTTVTVSS VL: DIQLTQSPSTLSASVGDRVTITCRASQDIGSNLNWLQQKPGGTIKRLISATSSLDSGVPSRFSGSRSGSEYTLTISSLQPDDFATYYCLQYATFPYTFGQGTRLEIKR"
units_symbol = "MFI"
reading = 14800


In: Request the reported MFI.Max associated with humanized antibody 26D1 (hz) (antibody, V domains shown) VH: QVQLVQSGAEVKKPGASVKVSCKASGYTFTSYTIQWIKQAPGQGLEWIGYIIPSSGYTNYNQKFKDKATLTADKSSNTAYMELSSLTSEDTAVYYCANNYGNWGFTYWGQGTTVTVSS VL: DIQMTQSPSTLSASVGDRVTITCKASQNVGSAVTWYQQKPGKAPRLLIYSASNRYTGVPDRFSGSGSGTEFTLTISSLQPDDFATYFCQQYSNYPLTFGQGTRLEIKR
Out: 9560
